Taken from patent US8367648B2.

- TARGET_DESC: PR-A (Homo sapiens, UniProt P06401)
- Sequence (P06401 1-769 isoform P06401-2): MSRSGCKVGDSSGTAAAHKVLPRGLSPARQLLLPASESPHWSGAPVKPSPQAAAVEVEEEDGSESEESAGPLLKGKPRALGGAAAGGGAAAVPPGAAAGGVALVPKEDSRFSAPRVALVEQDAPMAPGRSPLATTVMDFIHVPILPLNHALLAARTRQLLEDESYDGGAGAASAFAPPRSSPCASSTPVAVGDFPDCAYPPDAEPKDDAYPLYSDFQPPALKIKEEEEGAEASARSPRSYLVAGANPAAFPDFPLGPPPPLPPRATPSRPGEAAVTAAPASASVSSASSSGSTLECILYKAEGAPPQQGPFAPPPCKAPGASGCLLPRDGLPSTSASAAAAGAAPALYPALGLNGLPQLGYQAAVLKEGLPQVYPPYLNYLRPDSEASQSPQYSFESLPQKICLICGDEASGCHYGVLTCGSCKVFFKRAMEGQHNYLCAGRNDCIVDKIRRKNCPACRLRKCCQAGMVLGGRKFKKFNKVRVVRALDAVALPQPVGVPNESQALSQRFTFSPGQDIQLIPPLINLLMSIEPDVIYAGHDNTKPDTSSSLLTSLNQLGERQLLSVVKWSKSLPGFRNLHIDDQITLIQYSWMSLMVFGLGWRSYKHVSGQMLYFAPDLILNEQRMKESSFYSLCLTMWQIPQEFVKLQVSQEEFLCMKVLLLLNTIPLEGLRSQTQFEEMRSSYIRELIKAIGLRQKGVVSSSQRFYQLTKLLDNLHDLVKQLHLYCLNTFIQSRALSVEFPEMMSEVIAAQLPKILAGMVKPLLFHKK
- PROTOCOL_DESCRIPTION: In vitro nuclear receptor profile, PR-A antagonism
- CONDITION_DETAILS: antagonist mode; read-out: PR-A ant IC50
OBSERVATION_TYPE: pIC50
The meaning of pIC50 here: minus log10 of the concentration in molar units.

CCC[C@@H]1Cc2cc(O)ccc2[C@H]2CC[C@@]3(C)[C@@H](C[C@H]4CCC(=O)C[C@]43O)[C@H]12 [Compound 10]	7.57

Now for the molecule whose pIC50 we want.
Data request: Give PR-A (Homo sapiens, UniProt P06401) pIC50 for CCC[C@@H]1Cc2cc(O)ccc2[C@H]2CC[C@@]3(C)[C@@H](C[C@H]4CC[C@H](O)C[C@]43O)[C@H]12 [Org 41621, reference compound]
Data returned: 7.23

====

- TARGET_DESC: PR-A (Homo sapiens)
- PROTOCOL_DESCRIPTION: In vitro nuclear receptor profile, PR-A agonism
- CONDITION_DETAILS: agonist mode; read-out: PR-A ago EC50
OBSERVATION_TYPE: pEC50
The meaning of pEC50 here: minus log10 of the concentration in molar units.

Data request: // returns reported pEC50 for input CCC[C@@H]1Cc2cc(O)ccc2[C@H]2CC[C@@]3(C)[C@@H](C[C@H]4CCC(=O)C[C@]43O)[C@H]12
Data returned: 7.52

====

- TARGET_DESC: progesterone receptor B (PR-B) (Homo sapiens, UniProt P06401)
- PROTOCOL_DESCRIPTION: In vitro nuclear receptor profile, PR-B agonism
- Format: cell-based
- CONDITION_DETAILS: agonist mode; read-out: PR-B ago EC50
OBSERVATION_TYPE: EC50

Data request: // returns reported EC50 for input CCC[C@@H]1Cc2cc(O)ccc2[C@H]2CC[C@@]3(C)[C@@H](C[C@H]4CC[C@H](O)C[C@]43O)[C@H]12 [Org 41621, reference compound]
Data returned: > 0.1 µM
